# System: UO-31 renal
# procedureSummary: NCI-60 one-dose screen, 48 h (100 = growth as untreated, 0 = no growth, -100 = all killed)
# testContext: 10 µM unless noted
About 83,000 compounds went through this panel and 20% of them were active in at least one assay; those are over-represented in the sample as a whole.
In plain terms, low growth, meaning strictly below 30%, gives 1.0, and everything else gives 0.0.

Worked set:
smi=CC(=O)Nc1cccc(-c2ccc3c(c2)NC(=O)/C3=C\c2ccc[nH]2)c1 label=1.0
smi=O=S(=O)(NCCNc1nccc(-c2c(-c3cccc(O)c3)nc3occn23)n1)c1ccc(C(F)(F)F)cc1 label=0.0
smi=COc1cc(/C=C2\COc3ccc(-c4ccccc4)cc3C2=O)cc(OC)c1 label=0.0
smi=Cn1c(-c2c(N)n(CCCN3CCOCC3)c3nc(C#N)c(C#N)nc23)nc2ccccc21 label=1.0

# ---- query compound ----
Prompt: Consider the compound NCCCCCCNc1cc(-c2cccc(OC(F)(F)F)c2)nc2ccc(N3CCCC3)cc12 . Is its growth strictly less than 30%?
Response: 1.0

====

# Tested on: SF-268 CNS
# procedureSummary: NCI-60 one-dose screen, 48 h (100 = growth as untreated, 0 = no growth, -100 = all killed)
# testContext: 10 µM unless noted
This is part of a sample that, as a whole, favours compounds with a hit. Of some 83,000 tested, about 20% had one in any assay.
measurementType: growth (%)
Just the number please, in %, no unit attached.

Known results for compounds:
compound=COc1ccc(C(=O)/C=C/c2cc3ccccc3n3nnnc23)cc1 reportedvalue=108
compound=O=S(=O)(NCCNc1nccc(-c2c(-c3cccc(F)c3)nc3sccn23)n1)c1ccc(Cl)cc1 reportedvalue=52.9
compound=CC(=O)c1cc2c(N)c(C(=O)Nc3cccc4ccncc34)sc2nc1C reportedvalue=98.5
compound=CC(=O)OC[C@]12CC[C@@H](C(=O)CBr)[C@@H]1[C@H]1CC[C@@H]3[C@@]4(C)CC[C@H](OC(C)=O)C(C)(C)[C@@H]4CC[C@@]3(C)[C@]1(C)CC2 reportedvalue=89.9
compound=COc1ccc(C(=O)NNc2nc(Cl)nc(N3CCN(C(c4ccccc4)c4ccccc4)CC3)n2)cc1 reportedvalue=86.6
compound="CCOC(=O)C1=C(CCl)NC(=O)NC1c1ccc2c(c1)OCO2 (centres undefined)" reportedvalue=66.9
compound=O=C1NN(C(=O)c2ccccc2)C(c2ccc(Cl)c(Cl)c2)=C/C1=C\c1ccc([N+](=O)[O-])cc1 reportedvalue=74.8
compound=COc1cc(NCCCCCNC(C)(C)C)c2ncccc2c1 reportedvalue=105

Query compound follows.
Prompt: What does the data say about its growth? Entry: COCCCN1CC(O)=C(c2nc(-c3ccc(C)cc3)cs2)C1=N
Response: 223

====

# System: SK-MEL-5 melanoma
# procedureSummary: NCI-60 one-dose screen, 48 h (100 = growth as untreated, 0 = no growth, -100 = all killed)
# testContext: 10 µM unless noted
The panel holds about 83,000 compounds, 20% with a hit somewhere; the sample as a whole holds those more often.
measurementType: growth (%)
Just the number please, in %, no unit attached.

Known results for molecules:
molecule=CCCCCCCCCCCCCCCC[N+]1(C)CCN(SN2CC[N+](C)(CCCCCCCCCCCCCCCC)CC2)CC1 endpointunit=% reportedvalue=95.4
molecule=CC(C)N1C(=O)S/C(=C2/SC(=O)N(C(C)C)C2=O)C1=O endpointunit=% reportedvalue=93.9
molecule=Oc1cccc(CCc2ccc(Oc3cc(CCc4cccc(O)c4)cc(O)c3O)cc2)c1 endpointunit=% reportedvalue=70.2
molecule=O=C(C[n+]1cccc2ccccc21)c1ccc(O)c(O)c1 endpointunit=% reportedvalue=82.7
molecule=O=[N+]([O-])c1ccc(NC(=S)N/N=C/c2cc3ccccc3n3nnnc23)cc1 endpointunit=% reportedvalue=71

Prompt: What does the data say about its growth? Entry: COc1cccc(-c2nc3occn3c2-c2ccnc(NCCCNS(=O)(=O)c3ccc(C(F)(F)F)cc3)n2)c1
Response: 68.6

Prompt: Try COc1cccc2c1c1nc3cc(C)c(C)cc3nc1n2CCN(C)C next.
Response: 10.7

Prompt: Try COc1ccc(-c2nc3sccn3c2/C=C/C(=O)c2ccc3c(c2)OCO3)cc1 next.
Response: 78.7

Prompt: Try COc1ccc(/C=C2\Oc3cc(OCCCN4CCCCC4)ccc3C2=O)cc1OC next.
Response: 94.5

Prompt: Try CC(C)(C)CC(C)(C)n1nnnc1C(NC12CC3CC(CC(C3)C1)C2)c1ccccc1 (stereo not given) next.
Response: 88.9

Prompt: Try NS(=O)(=O)c1ccc(CCN2C(=O)C=CC2=O)cc1 next.
Response: 104

====

# Test system: A498 renal
# procedureSummary: NCI-60 one-dose screen, 48 h (100 = growth as untreated, 0 = no growth, -100 = all killed)
# testContext: 10 µM unless noted
# Protocol: Growth inhibition of the A498 human tumor cell line is measured as a screen for anti-cancer activity. Cells are grown in 96 well plates and exposed to the test compound for 48 hours. Compounds are tested at a single concentration, which is 10^-5 M for most compounds. The reported endpoint is percent growth (GI% or GIPRCNT), where numbers from 0 - 100% represent growth inhibition, and numbers from -100% - 0 represent cell death. For example, a value of 40 represents 60% growth inhibition. […]
About 83,000 compounds went through this panel and 20% of them were active in at least one assay; those are over-represented in the sample as a whole.
growth by entry:
Just the number please, in %, no unit attached.

Known results for compounds:
compound=COc1ccc(-c2cnc3c(-c4cccc5cnccc45)cnn3c2)cc1 measurementtype=growth reportedvalue=44.6
compound=O=C(Cn1c(C(=O)c2ccccc2)nc2ccccc21)c1ccc(F)cc1 measurementtype=growth reportedvalue=86.5
compound=COc1ccc2[nH]c(O)c(/C=c3/cc4c(c(-c5ccc(F)cc5)n3)=Nc3ccccc3-4)c2c1 measurementtype=growth reportedvalue=70.2
compound="Cn1c(N2NC(=O)C(N=Nc3ccc(S(N)(=O)=O)cc3)C2=O)nc(-c2ccco2)c(C#N)c1=O (stereo not given)" measurementtype=growth reportedvalue=122

Query compound follows.
Prompt: What does the data say about its growth? Entry: COc1ccc(/C=C/c2nc(Nc3cccc(NC(C)=O)c3)c3ccccc3n2)cc1
Response: 9.66

====

growth by entry:
# Test system: 786-0 renal
# procedureSummary: NCI-60 one-dose screen, 48 h (100 = growth as untreated, 0 = no growth, -100 = all killed)
# testContext: 10 µM unless noted
# Procedure: Cells are grown in 96 well plates and exposed to the test compound for 48 hours. Compounds are tested at a single concentration, which is 10^-5 M for most compounds. The reported endpoint is percent growth (GI% or GIPRCNT), where numbers from 0 - 100% represent growth inhibition, and numbers from -100% - 0 represent cell death. For example, a value of 40 represents 60% growth inhibition. A value of 0 means no net growth occurred over the course of the experiment. […]
About 83,000 compounds went through this panel and 20% of them were active in at least one assay; those are over-represented in the sample as a whole. Active and inactive are the calls of the source. How the source made its calls: active means growth percent below 10; inactive means the rest.

Known results for compounds:
compound=COc1c(Cl)c2c(c(OC)c1OC)-c1ccc(SC)c(=O)cc1[C@@H](NC(=O)OCC(F)(F)F)CC2 targetortestsystem="786-0 renal" measurementtype=growth reportedvalue="11% (inactive)"
compound=Cn1ccnc1C(=O)/C=C/c1ccc(CC(=O)NC2CCCCC2)cc1 targetortestsystem="786-0 renal" measurementtype=growth reportedvalue="71.3% (inactive)"
compound=COc1cc2nc(-c3ccc(Cl)cc3)cc(OCCCN3CCC(O)CC3)c2cc1OC targetortestsystem="786-0 renal" measurementtype=growth reportedvalue="75.2% (inactive)"
compound="COc1ccc2c(c1)C(=O)CC(c1ccccc1OC)O2 (stereo not given)" targetortestsystem="786-0 renal" measurementtype=growth reportedvalue="104% (inactive)"
compound=Cc1cc2c(C(=O)NCC#N)cccc2n1-c1nc2c(c(NCc3ccccc3)n1)CCCC2 targetortestsystem="786-0 renal" measurementtype=growth reportedvalue="-56.8% (active)"
compound="CN1C(=O)NC(c2ccc3c(c2)OCO3)C=C1c1ccccc1 (stereo not given)" targetortestsystem="786-0 renal" measurementtype=growth reportedvalue="83% (inactive)"
compound=O=C1c2cccc3c(-c4ccc5c(c4)ncn5C4CCCCC4)ccc(c23)C(=O)N1c1nc2ccccc2s1 targetortestsystem="786-0 renal" measurementtype=growth reportedvalue="93% (inactive)"
compound=COc1cc(/C=C\c2cc(/C=C\c3ccc(O)c(OC)c3)n(C(=O)COc3ccccc3)n2)ccc1O targetortestsystem="786-0 renal" measurementtype=growth reportedvalue="1.27% (active)"

Query compound follows.
Prompt: Query the reported growth for 786-0 renal; item: COc1ccc(C(=O)c2cc(C)c(OC)c(C)c2)c(OC)c1NC(C)=O
Response: 13.7% (inactive)

====

# System: SK-MEL-28 melanoma
# procedureSummary: NCI-60 one-dose screen, 48 h
# testContext: 10 µM unless noted
This is part of a sample that, as a whole, favours compounds with a hit. Of some 83,000 tested, about 20% had one in any assay. Calls of active or inactive are those of the source. How the source made its calls: active means growth percent below 10; inactive means the rest.
A correct response names exactly one class from active, inactive

Worked set:
compound=CCCC/C=N/NC(=S)NCc1ccccc1 label=inactive
compound=Oc1c(Cl)cc(Cl)c(Cl)c1CNCCNCc1c(O)c(Cl)cc(Cl)c1Cl label=inactive
compound=ClC1=C(Br)C(Br)(Br)C(=C(Br)Br)C1(Br)Br label=inactive

Prompt: Assay outcome for C/C(=N\NC(=O)CSc1nc2ccccc2c(=O)n1CCc1ccc(S(N)(=O)=O)cc1)c1ccccn1 : what was it?
Response: inactive

Origin of measurements: PubChem BioAssay (NCI)
